# target_desc: hTLR7 (Homo sapiens, UniProt Q9NYK1)
# Sequence (Q9NYK1 27-1049): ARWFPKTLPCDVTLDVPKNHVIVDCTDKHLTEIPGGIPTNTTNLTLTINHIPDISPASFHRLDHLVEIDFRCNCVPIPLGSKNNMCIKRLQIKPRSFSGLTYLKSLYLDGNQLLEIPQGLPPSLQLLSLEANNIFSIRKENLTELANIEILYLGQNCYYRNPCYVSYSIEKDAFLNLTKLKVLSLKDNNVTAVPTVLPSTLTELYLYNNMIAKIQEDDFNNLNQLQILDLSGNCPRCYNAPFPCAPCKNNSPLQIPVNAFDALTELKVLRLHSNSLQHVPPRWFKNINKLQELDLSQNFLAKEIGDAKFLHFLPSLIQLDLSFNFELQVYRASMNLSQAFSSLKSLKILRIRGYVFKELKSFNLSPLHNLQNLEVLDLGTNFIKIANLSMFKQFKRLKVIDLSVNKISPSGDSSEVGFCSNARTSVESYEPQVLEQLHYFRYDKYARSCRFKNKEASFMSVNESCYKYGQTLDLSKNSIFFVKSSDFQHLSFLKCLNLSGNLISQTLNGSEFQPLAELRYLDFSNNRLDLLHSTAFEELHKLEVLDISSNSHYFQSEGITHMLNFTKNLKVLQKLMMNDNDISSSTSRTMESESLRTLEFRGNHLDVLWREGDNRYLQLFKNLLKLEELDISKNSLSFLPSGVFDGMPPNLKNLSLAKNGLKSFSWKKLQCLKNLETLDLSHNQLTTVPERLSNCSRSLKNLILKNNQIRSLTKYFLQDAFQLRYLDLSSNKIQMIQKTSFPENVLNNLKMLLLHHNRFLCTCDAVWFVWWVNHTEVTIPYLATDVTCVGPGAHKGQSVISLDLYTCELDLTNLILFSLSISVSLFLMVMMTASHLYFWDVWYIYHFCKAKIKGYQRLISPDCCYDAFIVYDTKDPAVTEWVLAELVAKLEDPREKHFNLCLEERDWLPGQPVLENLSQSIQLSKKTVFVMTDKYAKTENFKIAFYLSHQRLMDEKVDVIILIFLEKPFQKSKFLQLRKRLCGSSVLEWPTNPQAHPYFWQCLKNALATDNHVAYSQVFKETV
# method_notes: Reporter Gene Assay (RGA), HEK-Blue hTLR7 reporter cells, SEAP readout
# condition_summary: overnight incubation, SEAP absorbance 620 nm
# Description: 1.5×10^4 HEK-Blue™ hTLR7 (Invivogen, San Diego, CA) or HEK-Blue™ mTLR7 (Invivogen, San Diego, CA) reporter cells were treated with a titration series of test compound (4-fold titration from 15 pM, 11 points). […] Cells with test compound were incubated overnight at 37° C.+5% CO2, and the amount of secreted embryonic alkaline phosphatase (SEAP) was determined by measuring absorbance (620 nm) using a Synergy™ H1 microplate reader. […]
pEC50: −log10 of the molar value.
The threshold is inclusive: pEC50 of exactly 8 counts as y; values below receive n.

Is pEC50 at least 8? Consider CCOc1nc(N)c2nc(O)n(Cc3ccc(CNCc4ccc(CNCc5ccccc5)cc4)cc3OC)c2n1 [Compound 147]
y

Try this compound too: CCCCOc1nc(N)c2nc(O)n(Cc3ccc(N4CCNCC4)nc3)c2n1 [Compound 167]
y

Can you handle CCCCOc1nc(N)c2nc(O)n(Cc3ccc(CCNC4CCNCC4)cc3OC)c2n1 [Compound 179] next?
n

Also check CCCCOc1nc(N)c2nc(O)n(Cc3ccc(CN)cc3OC)c2n1 [Compound 162]
y

Please do the same for CCOc1nc(N)c2nc(O)n(Cc3ccc(CNC4CCCNC4)cc3OC)c2n1 (stereo not drawn) [Compound 127] as well.
n

Now give it for CCCCCNc1nc(N)c2nc(O)n(Cc3ccc(CNCc4ccc(CN)cc4)cc3)c2n1 [Compound 191] too.
n

Now consider CCOc1nc(N)c2nc(O)n(Cc3ccc(CNCCCCCO)cc3OC)c2n1 [Compound 103] and answer again.
n

Param item: CCCCOc1nc(N)c2nc(O)n(Cc3ccc(CCN4CCC5(CCNCC5)CC4)cc3OC)c2n1 [Compound 177]
n

Repeat for the following compound: CCCCOc1nc(N)c2nc(O)n(Cc3ccc(CNCC(C)(C)O)cc3OC)c2n1 [Compound 159]
y

Now the same for CCOc1nc(N)c2nc(O)n(Cc3ccc(CN[C@@H](CO)C(=O)O)cc3OC)c2n1 [Compound 119]
n

Further, for CCOc1nc(N)c2nc(O)n(Cc3ccc(CNCc4cccnc4)cc3OC)c2n1 [Compound 193] ?
n

Cool, now CCCCCNc1nc(N)c2nc(O)n(Cc3ccc(CN)cc3)c2n1 [Compound 183]
n

Try CCCCCNc1nc(N)c2nc(O)n(Cc3ccc(CNCCCCN)cc3)c2n1 [Compound 190] next.
n

Try CCCCCNc1nc(N)c2nc(O)n(Cc3ccc(CNCCN)cc3)c2n1 [Compound 189] next.
n

Queued: CCOc1nc(N)c2nc(O)n(Cc3ccc(CNCC(O)CN4CCOCC4)cc3OC)c2n1 (stereo not drawn) [Compound 136]
n

Also CCCCOc1nc(N)c2nc(O)n(Cc3ccc(CCCN4CCC(N)CC4)cc3OC)c2n1 [Compound 172] ?
y

Subsequent entry: CCCCOc1nc(N)c2nc(O)n(Cc3ccc(CNC4CCC4)cc3OC)c2n1 [Compound 164]
y

Same question, CCOc1nc(N)c2nc(O)n(Cc3ccc(CNCCCC[C@H](N)C(=O)O)cc3OC)c2n1 [Compound 114] this time
n

Continue with CCCCOc1nc(N)c2nc(O)n(Cc3ccc(CN4CCNCC4)cc3)c2n1 [Compound 166]
y

Please do the same for CCOc1nc(N)c2nc(O)n(Cc3ccc(CN4CCN(C(=O)CCCCCNC(=O)CC(SC[C@@H](N)C(=O)O)C(=O)O)CC4)cc3OC)c2n1 (stereo partly drawn) [Compound 148] as well.
n

Record: CCOc1nc(N)c2nc(O)n(Cc3ccc(CN4C[C@@H]5C[C@H]4CN5)cc3OC)c2n1 [Compound 128]
n

Lookup CCOc1nc(N)c2nc(O)n(Cc3ccc(CN4CCC(CN)CC4)cc3OC)c2n1 [Compound 132]
y

// query: CCCCOc1nc(N)c2nc(O)n(Cc3ccc(N4CCC5(CCNCC5)CC4)cc3OC)c2n1 [Compound 171]
y

Also check CCCCOc1nc(N)c2nc(O)n(Cc3ccc(CN4CCC(CN)CC4)cc3OC)c2n1 [Compound 156]
y

Similarly, CCCCOc1nc(N)c2nc(O)n(Cc3ccc(CN4CCC(CCN)CC4)cc3OC)c2n1 [Compound 158] ?
y

And then CCOc1nc(N)c2nc(O)n(Cc3ccc(CNCc4ccc(CN5CCC(N)CC5)cc4)cc3OC)c2n1 [Compound 144] , what is it?
n

// same read-out, input: CCCCCNc1nc(N)c2nc(O)n(Cc3ccc(CN4CCNCC4)cc3)c2n1 [Compound 187]
n

Now consider CCOc1nc(N)c2nc(O)n(Cc3ccc(CNCc4ccc(CN5CCOCC5)cc4)cc3OC)c2n1 [Compound 142] .
y

And the next one, CCOc1nc(N)c2nc(O)n(Cc3ccc(CN(CC)CC)cc3OC)c2n1 [Compound 102] ?
y
